These entries and their values trace back to ChEMBL document CHEMBL5244216.

Some molecules, each annotated with its measured IC50 at 48 h.
procedureDetails: Cytotoxicity activity against human SMMC-7721 cells assessed as reduction in cell viability measured after 48 hrs by MTT assay
Format: toxicity, cell-based
reportedEndpoint: IC50 at 48 h (µM)

>>> valueobserved("CN1C(=O)C(c2ccc[nH]2)=C(c2c[nH]c3ccc(Br)cc23)C1=O")
29.7
>>> valueobserved("O=C1NC(=O)C(c2c[nH]c3ccccc23)=C1c1c[nH]c2ccccc12")
13.2

====

procedureDetails: Cytotoxicity activity against human Eca-109 cells assessed as reduction in cell viability measured after 48 hrs by MTT assay
Type: toxicity, cell-based
reportedEndpoint: IC50 at 48 h (µM)

>>> valueobserved("CN1C(=O)C(c2ccc[nH]2)=C(c2c[nH]c3ccc(Br)cc23)C1=O")
6.21
>>> valueobserved("O=C1NC(=O)C(c2c[nH]c3ccccc23)=C1c1c[nH]c2ccccc12")
15.9

====

procedureDetails: Cytotoxicity activity against human A549 cells assessed as reduction in cell viability measured after 48 hrs by MTT assay
Type: toxicity, cell-based
reportedEndpoint: IC50 at 48 h (µM)

>>> valueobserved("O=C1NC(=O)C(c2c[nH]c3ccccc23)=C1c1c[nH]c2ccccc12")
4.14

====

assaySystem: Tyrosine-protein kinase Lck (Homo sapiens, UniProt P06239)
Sequence (P06239 whole entry): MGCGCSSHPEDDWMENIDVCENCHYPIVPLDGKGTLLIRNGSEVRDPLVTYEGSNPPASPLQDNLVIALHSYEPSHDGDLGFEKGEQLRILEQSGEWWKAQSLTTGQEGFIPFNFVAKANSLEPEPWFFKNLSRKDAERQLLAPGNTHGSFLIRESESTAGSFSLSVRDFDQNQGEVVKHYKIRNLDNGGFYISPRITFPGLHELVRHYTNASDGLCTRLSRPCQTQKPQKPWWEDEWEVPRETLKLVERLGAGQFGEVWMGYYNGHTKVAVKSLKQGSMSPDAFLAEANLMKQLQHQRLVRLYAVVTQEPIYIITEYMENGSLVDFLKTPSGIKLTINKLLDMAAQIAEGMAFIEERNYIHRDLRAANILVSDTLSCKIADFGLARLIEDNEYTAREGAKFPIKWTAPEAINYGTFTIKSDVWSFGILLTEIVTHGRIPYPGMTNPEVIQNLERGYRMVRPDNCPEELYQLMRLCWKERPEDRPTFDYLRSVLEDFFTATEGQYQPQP
procedureDetails: Inhibition of human recombinant Lck
pIC50: −log10 of the molar value.
reportedEndpoint: pIC50

>>> valueobserved("NC(=O)c1c(-c2ccc(Oc3ccccc3)cc2)[nH]c(C(=O)c2c(F)cccc2F)c1N")
8.96

====

Tested on: Human immunodeficiency virus 1
procedureDetails: Antiviral activity against HIV-1
Type: functional, organism-based
pEC50: −log10 of the molar value.
reportedEndpoint: pEC50

>>> valueobserved("CCCCc1c(COC(N)=O)cn(Cc2ccncc2)c1Sc1cc(Cl)cc(Cl)c1")
8.15

====

Listed molecules paired with reported pIC50
procedureDetails: Inhibition of maize HD2
Parameters: species or system Zea mays
pIC50: −log10 of the molar value.
reportedEndpoint: pIC50

>>> valueobserved("CC(/C=C/C(=O)NO)=C\\[C@@H](C)C(=O)c1ccc(N(C)C)cc1 [TRICHOSTATIN]")
8.15
>>> valueobserved("CC(C(=O)c1cc(/C=C/C(=O)NO)n(C)c1)c1ccccc1 (configuration not stated)")
6.95

====

procedureDetails: Cytotoxicity activity against human MCF7 cells assessed as reduction in cell viability measured after 72 hrs by MTT assay
Assay type: toxicity, cell-based
reportedEndpoint: IC50 at 72 h (µM)

>>> valueobserved("COC(=O)c1c(C2C(=O)N(C)C(=O)N(C)C2=O)c(-c2ccccc2)n(-c2ccc(OC)c(S(=O)(=O)N3CCOCC3)c2)c1C(=O)OC")
39

====

procedureDetails: Cytotoxicity activity against human PC-3 cells assessed as reduction in cell viability measured after 48 hrs by MTT assay
Format: toxicity, cell-based
Reported values of IC50 at 48 h for individual entries
reportedEndpoint: IC50 at 48 h (µM)

>>> valueobserved("CN1C(=O)C(c2ccc[nH]2)=C(c2c[nH]c3ccc(Br)cc23)C1=O")
2.16
>>> valueobserved("O=C1NC(=O)C(c2c[nH]c3ccccc23)=C1c1c[nH]c2ccccc12")
10.3

====

# MIC values compiled below
Tested on: Mycobacterium tuberculosis
procedureDetails: Antitubercular activity against Mycobacterium tuberculosis 103471 assessed as reduction in bacterial growth
Assay type: functional
reportedEndpoint: MIC (µg/mL)

>>> valueobserved("Cc1c(CN2CCSCC2)cc(-c2ccccc2F)n1-c1ccccc1F")
1
>>> valueobserved("CO[C@H]1/C=C/O[C@@]2(C)Oc3c(C)c(O)c4c(O)c(c(/C=N/N5CCN(C)CC5)c(O)c4c3C2=O)NC(=O)/C(C)=C\\C=C\\[C@H](C)[C@H](O)[C@@H](C)[C@@H](O)[C@@H](C)[C@H](OC(C)=O)[C@@H]1C")
0.3
>>> valueobserved("NNC(=O)c1ccncc1")
0.25
>>> valueobserved("CN[C@@H]1[C@H](O[C@H]2[C@H](O[C@H]3[C@H](O)[C@@H](O)[C@H](N=C(N)N)[C@@H](O)[C@@H]3N=C(N)N)O[C@@H](C)[C@]2(O)C=O)O[C@@H](CO)[C@H](O)[C@H]1O")
0.5
